Reference for the values: a melting point compilation (Tetko et al.; mined from patent text by program, amines drawn as free bases though some values may be those of a salt)

# maps each entry to its melting point

Worked examples follow.
Brc1ccc(OCCCCCN2CCN(c3nccs3)CC2)cc1 : 73 to 75 °C
CCCCc1nc2sc(Cl)cc2c(=O)n1CCC : 67 to 69 °C
CC(=O)Nc1ccc(Cl)c2c1C(=O)CCN2C(C)=O : 175 to 177 °C
COc1cc(N2C(=S)N3CCCCC3C2O)c(F)cc1Cl (stereo not given) : 208 to 215 °C
O=C(NCC1Cc2cccc(-c3c(Cl)cccc3Cl)c2O1)OCc1ccccc1 (stereo not given) : 198 to 200 °C

Inquiry: For the compound CCCC1OC(C(=O)OC)CC2=C1C(=O)c1ccccc1C2=O (stereo not given) , what melting point is on record?
Reply text: 112 to 114 °C

Inquiry: For the compound `Cc1c(-c2ccccc2)[nH]c(=O)n1C1CCN(Cc2cccc(C(F)(F)F)c2)CC1` , what melting point is on record?
Reply text: 243 °C

Inquiry: For the compound `CC(=Cc1ccccc1)S(=O)(=O)NC(=O)N1CCCCC1` , what melting point is on record?
Reply text: 159 to 161 °C

Inquiry: For the compound `CN(C)CCn1c(=O)c2ccc(N)cc2c2cnc3cc4c(cc3c21)OCO4` , what melting point is on record?
Reply text: 300 to 301 °C

Inquiry: For the compound `N#Cc1c(N2CCCN(c3ccccn3)CC2)cc[nH]c1=S` , what melting point is on record?
Reply text: 220 to 224 °C
